Measurement Target: human 5-HT2A receptor (Homo sapiens (Human), UniProt P28223)
Sequence (P28223 whole entry): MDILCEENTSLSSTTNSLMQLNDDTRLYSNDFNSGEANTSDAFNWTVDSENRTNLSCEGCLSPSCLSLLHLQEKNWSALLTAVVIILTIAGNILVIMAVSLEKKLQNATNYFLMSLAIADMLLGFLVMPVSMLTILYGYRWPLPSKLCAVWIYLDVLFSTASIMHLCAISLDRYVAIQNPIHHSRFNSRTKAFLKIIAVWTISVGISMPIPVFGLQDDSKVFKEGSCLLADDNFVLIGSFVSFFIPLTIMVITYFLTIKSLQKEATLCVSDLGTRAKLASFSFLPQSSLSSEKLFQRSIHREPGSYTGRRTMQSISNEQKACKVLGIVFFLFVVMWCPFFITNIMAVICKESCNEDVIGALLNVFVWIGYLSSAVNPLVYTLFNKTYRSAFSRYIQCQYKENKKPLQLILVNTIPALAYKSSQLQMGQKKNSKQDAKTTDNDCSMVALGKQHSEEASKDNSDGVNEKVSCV
Experiment Notes: Test 1: binding activity for human 5-HT2A receptor ([3H]Ketanserin, CHO cell membrane fraction)
Procedure: Test 1: Evaluation of Binding Activity for Human 5-HT1A Receptor, Human 5-HT2A Receptor, and Human D2 Receptor Binding affinity of the present compound for human 5-HT1A receptor, human 5-HT2A receptor, and human D2 receptor was measured by the following procedures. Each mixture was incubated at room temperature for 60 minutes. […] Radioactivity remaining on the filter was measured with a liquid scintillation counter (PerkinElmer, Inc.). Binding inhibition rate was calculated from the following formula. […]
Quick rule for you: Ki under 20 nM gets class 1, anything else gets class 0.

In: Below 20 nM on Ki? Entry `Cc1ncc2c(n1)CCN(CCN1CCN(c3noc4ccccc34)CC1)C2=O`
Out: class 0

In: Below 20 nM on Ki? Entry `Cc1ccc2c(n1)C(=O)N(CCN1CCC(c3noc4ccccc34)CC1)CC2`
Out: class 0

In: Below 20 nM on Ki? Entry `Cn1ccc2c1CCCN(CCN1CCN(c3nsc4ccccc34)CC1)C2=O`
Out: class 1

In: Below 20 nM on Ki? Entry `O=C1c2cccnc2CCN1CCN1CCC(c2noc3cc(F)ccc23)CC1`
Out: class 0

In: Below 20 nM on Ki? Entry Cn1cc2c(n1)CCN(CCN1CCC(c3noc4ccccc34)C1)C2=O (stereo not drawn)
Out: class 0

In: Below 20 nM on Ki? Entry CC1(CCN2CCN(c3noc4ccccc34)CC2)CCc2cccnc2C1=O (stereo not drawn)
Out: class 1

In: Below 20 nM on Ki? Entry `O=C1c2ncccc2CCN1CCN1CCN(c2noc3cc(Cl)ccc23)CC1`
Out: class 0

In: Below 20 nM on Ki? Entry `Cc1c2c(nn1C)CCN(CCN1CCN(c3noc4ccccc34)CC1)C2=O`
Out: class 1

In: Below 20 nM on Ki? Entry `O=C1c2ncccc2CCN1CCN1CCN(c2nsc3ccccc23)CC1`
Out: class 1

---

So I've got a bunch of compounds here, and I need their Metabolic stability in human hepatic microsome values.
Experiment Notes: Test 4: metabolic stability test in human hepatic microsome
Format: in vitro ADME
Assay Conditions: 0.1 mg/mL microsome, 0.1 μmol/L compound, 37° C., 30 minutes

In: Fill blank: measured Metabolic stability in human hepatic microsome of the compound `Cn1cc2c(n1)CCN(CCN1CCN(c3noc4ccccc34)CC1)C2=O` is ____.
Out: <0.01 mL/min/mg protein

In: Fill blank: measured Metabolic stability in human hepatic microsome of the compound `Cc1nc2c(o1)CCN(CCN1CCN(c3nsc4ccccc34)CC1)C2=O` is ____.
Out: 0.074 mL/min/mg protein

In: Fill blank: measured Metabolic stability in human hepatic microsome of the compound `Cc1nc2c(o1)CCCN(CCN1CCC(c3noc4ccccc34)CC1)C2=O` is ____.
Out: <0.05 mL/min/mg protein

In: Fill blank: measured Metabolic stability in human hepatic microsome of the compound Cc1ccc2c(n1)C(=O)N(CCN1CCC(c3noc4ccccc34)CC1)CC2 [Example 187] is ____.
Out: <0.05 mL/min/mg protein

In: Fill blank: measured Metabolic stability in human hepatic microsome of the compound `Cn1ccc2c1CCN(CCN1CCC(c3noc4ccccc34)CC1)C2=O` is ____.
Out: 0.018 mL/min/mg protein

In: Fill blank: measured Metabolic stability in human hepatic microsome of the compound Cn1ncc2c1CCCC(CCN1CCC(c3noc4ccccc34)CC1)C2=O (stereo not drawn) is ____.
Out: 0.065 mL/min/mg protein

In: Fill blank: measured Metabolic stability in human hepatic microsome of the compound `O=C1c2cnc(OC3COC3)cc2CCN1CCN1CCN(c2nsc3ccccc23)CC1` is ____.
Out: 0.254 mL/min/mg protein

In: Fill blank: measured Metabolic stability in human hepatic microsome of the compound O=C1c2ncccc2CCC1CCN1CCN(c2noc3ccccc23)CC1 (stereo not drawn) is ____.
Out: 0.109 mL/min/mg protein

In: Fill blank: measured Metabolic stability in human hepatic microsome of the compound `Cc1ncc2c(n1)CCN(CCN1CCN(c3noc4ccccc34)CC1)C2=O` is ____.
Out: <0.05 mL/min/mg protein

In: Fill blank: measured Metabolic stability in human hepatic microsome of the compound `Cn1nc2c(c1C(F)(F)F)C(=O)N(CCN1CCN(c3nsc4ccccc34)CC1)CC2` is ____.
Out: 0.459 mL/min/mg protein

In: Fill blank: measured Metabolic stability in human hepatic microsome of the compound CC1CN(CCN2CCC(c3noc4ccccc34)CC2)C(=O)c2ccn(C)c21 (stereo not drawn) is ____.
Out: 0.072 mL/min/mg protein

In: Fill blank: measured Metabolic stability in human hepatic microsome of the compound CC1CN(CCN2CCN(c3noc4ccccc34)CC2)C(=O)c2ccn(C)c21 (stereo not drawn) is ____.
Out: 0.135 mL/min/mg protein

In: Fill blank: measured Metabolic stability in human hepatic microsome of the compound `CC(C)c1nc2c(o1)C(=O)N(CCN1CCN(c3nsc4ccccc34)CC1)CC2` is ____.
Out: 0.357 mL/min/mg protein

In: Fill blank: measured Metabolic stability in human hepatic microsome of the compound `Cc1ccc2c(n1)C(=O)N(CCN1CCN(c3noc4ccccc34)CC1)CC2` is ____.
Out: <0.05 mL/min/mg protein

In: Fill blank: measured Metabolic stability in human hepatic microsome of the compound `O=C1c2cn(C3CC3)nc2CCN1CCN1CCN(c2nsc3ccccc23)CC1` is ____.
Out: 0.174 mL/min/mg protein

In: Fill blank: measured Metabolic stability in human hepatic microsome of the compound `Cn1cnc2c1C(=O)N(CCN1CCC(c3noc4ccccc34)CC1)CCC2` is ____.
Out: <0.05 mL/min/mg protein

In: Fill blank: measured Metabolic stability in human hepatic microsome of the compound `O=C1c2cnc(C3CC3)nc2CCN1CCN1CCN(c2nsc3ccccc23)CC1` is ____.
Out: 0.368 mL/min/mg protein

In: Fill blank: measured Metabolic stability in human hepatic microsome of the compound `Cn1ccc2c1CCN(CCN1CCN(c3noc4ccccc34)CC1)C2=O` is ____.
Out: <0.05 mL/min/mg protein
